# ASSAY_TEXT: AUC (0 to 90 mins) in Sprague-Dawley rat portal vein plasma at 10 mg/kg, po
# Assay type: ADME, organism-based
# Parameters: time < 1.5 hr, dose 10 mg/kg, route oral
EXPERIMENTAL_READOUT: AUC(0-t) at 1.5 h (ng·h/mL)
Use ng·h/mL as the unit, but write only the number.

stdin: I am curious: what AUC(0-t) at 1.5 h value has been reported for COc1ccc(CCN(C)CCCC(C#N)(c2ccc(OC)c(OC)c2)C(C)C)cc1OC (stereo unspecified) ?
stdout: 1460

###

# ASSAY_TEXT: AUC (0 to 90 mins) in streptozotocin-induced diabetes mellitus model of Sprague-Dawley rat portal vein plasma at 10 mg/kg, po
# Format: ADME, organism-based
# Set-up: time < 1.5 hr, dose 10 mg/kg, route oral
EXPERIMENTAL_READOUT: AUC(0-t) at 1.5 h (ng·h/mL)
Use ng·h/mL as the unit, but write only the number.

stdin: I am curious: what AUC(0-t) at 1.5 h value has been reported for COc1ccc(CCN(C)CCCC(C#N)(c2ccc(OC)c(OC)c2)C(C)C)cc1OC (stereo unspecified) ?
stdout: 7030

###

# ASSAY_TEXT: Cmax in Sprague-Dawley rat portal vein plasma at 10 mg/kg, po
# Assay type: ADME, organism-based
# Parameters: dose 10 mg/kg, route oral
EXPERIMENTAL_READOUT: Cmax (ng/mL)
Use ng/mL as the unit, but write only the number.

stdin: I am curious: what Cmax value has been reported for COc1ccc(CCN(C)CCCC(C#N)(c2ccc(OC)c(OC)c2)C(C)C)cc1OC (stereo unspecified) ?
stdout: 1440

###

# ASSAY_TEXT: Tmax in streptozotocin-induced diabetes mellitus model of Sprague-Dawley rat portal vein plasma at 10 mg/kg, po
# Type: ADME, organism-based
# Parameters: dose 10 mg/kg, route oral
EXPERIMENTAL_READOUT: Tmax (min)
Use min as the unit, but write only the number.

stdin: I am curious: what Tmax value has been reported for COc1ccc(CCN(C)CCCC(C#N)(c2ccc(OC)c(OC)c2)C(C)C)cc1OC (stereo unspecified) ?
stdout: 30

###

# ASSAY_TEXT: Tmax in Sprague-Dawley rat at 10 mg/kg, po
# Assay type: ADME, organism-based
# Set-up: dose 10 mg/kg, route oral
# CONDITION_LABEL: in vivo
EXPERIMENTAL_READOUT: Tmax (min)
Use min as the unit, but write only the number.

stdin: I am curious: what Tmax value has been reported for COc1ccc(CCN(C)CCCC(C#N)(c2ccc(OC)c(OC)c2)C(C)C)cc1OC (stereo unspecified) ?
stdout: 34

// data source = ChEMBL document CHEMBL3526072
